The entries below are paired with their reported MIC P. aeruginosa ATCC 27883.
- Tested on: Pseudomonas aeruginosa (ATCC 27883)
- condition parameters: ATCC 27883
Non-standard residues stand in square brackets, D forms with d. Residues, ends and D or L forms follow the SMILES beside them. Dip = N[C@H](C(=O)O)C(c1ccccc1)c1ccccc1
measured parameter: MIC P. aeruginosa ATCC 27883 (µg/mL)

compound	readout unit	numeric value
N=C(N)NCCC[C@@H]1NC(=O)[C@H](CCCNC(=N)N)NC(=O)[C@H](C(c2ccccc2)c2ccccc2)NC(=O)[C@H](C(c2ccccc2)c2ccccc2)NC(=O)[C@H](CCCNC(=N)N)NC(=O)[C@H](CCCNC(=N)N)NC(=O)[C@H](C(c2ccccc2)c2ccccc2)NC1=O [IFX-016, c[Arg-Dip-Arg-Arg-Dip-Dip-Arg]] (cyclo(R[Dip]RR[Dip][Dip]R))	µg/mL	50
N=C(N)NCCC[C@@H]1NC(=O)[C@H](CCCNC(=N)N)NC(=O)[C@H](CCCNC(=N)N)NC(=O)[C@H](C(c2ccccc2)c2ccccc2)NC(=O)[C@H](C(c2ccccc2)c2ccccc2)NC(=O)[C@H](CCCNC(=N)N)NC1=O [IFX-010, c[Arg-Arg-Arg-Arg-Dip-Dip]] (cyclo([Dip][Dip]RRRR))	µg/mL	25
N=C(N)NCCC[C@H](NC(=O)[C@H](CCCNC(=N)N)NC(=O)[C@@H](NC(=O)[C@@H](NC(=O)[C@H](CCCNC(=N)N)NC(=O)[C@@H](N)CCCNC(=N)N)C(c1ccccc1)c1ccccc1)C(c1ccccc1)c1ccccc1)C(=O)N[C@H](C(=O)O)C(c1ccccc1)c1ccccc1 [IFX-017-1, NH2-Arg-Arg-Dip-Dip-Arg-Arg-Dip-OH] (H-RR[Dip][Dip]RR[Dip]-OH)	µg/mL	25

###

- Tested on: Pseudomonas aeruginosa (ATCC 27883)
- condition parameters: ATCC 27883
Non-standard residues stand in square brackets, D forms with d. Residues, ends and D or L forms follow the SMILES beside them. Bip = N[C@@H](Cc1ccc(-c2ccccc2)cc1)C(=O)O; dDip = N[C@@H](C(=O)O)C(c1ccccc1)c1ccccc1; Dip = N[C@H](C(=O)O)C(c1ccccc1)c1ccccc1; 2Nal = N[C@@H](Cc1ccc2ccccc2c1)C(=O)O; d2Nal = N[C@H](Cc1ccc2ccccc2c1)C(=O)O; Dab = NCC[C@H](N)C(=O)O
measured parameter: MIC P. aeruginosa ATCC 27883 (µg/mL)

molecule	measured parameter	readout unit	limit qualifier	numeric value
N=C(N)NCCC[C@@H]1NC(=O)[C@@H](CCCNC(=N)N)NC(=O)[C@H](CCCNC(=N)N)NC(=O)[C@@H](Cc2c[nH]c3ccccc23)NC(=O)[C@H](Cc2c[nH]c3ccccc23)NC(=O)[C@@H](Cc2c[nH]c3ccccc23)NC(=O)[C@H](Cc2c[nH]c3ccccc23)NC(=O)[C@@H](CCCNC(=N)N)NC1=O [IFX-033, c[Arg-arg-Arg-arg-Trp-trp-Trp-trp]] (cyclo(R[dR]R[dR]W[dW]W[dW]))	MIC P. aeruginosa ATCC 27883	µg/mL	=	25
N=C(N)NCCC[C@@H]1NC(=O)[C@H](CCCNC(=N)N)NC(=O)[C@H](CCCNC(=N)N)NC(=O)[C@@H](Cc2c[nH]c3ccccc23)NC(=O)[C@@H](Cc2c[nH]c3ccccc23)NC(=O)[C@@H](Cc2c[nH]c3ccccc23)NC(=O)[C@@H](Cc2c[nH]c3ccccc23)NC(=O)[C@H](CCCNC(=N)N)NC1=O [IFX-035, c[Arg-Arg-Arg-Arg-trp-trp-trp-trp]] (cyclo(RRRR[dW][dW][dW][dW]))	MIC P. aeruginosa ATCC 27883	µg/mL	=	25
N=C(N)NCCC[C@@H]1NC(=O)[C@@H](CCCNC(=N)N)NC(=O)[C@H](CCCNC(=N)N)NC(=O)[C@@H](C(c2ccccc2)c2ccccc2)NC(=O)[C@@H](C(c2ccccc2)c2ccccc2)NC(=O)[C@@H](C(c2ccccc2)c2ccccc2)NC(=O)[C@@H](CCCNC(=N)N)NC1=O [IFX-070, c[Arg-arg-Arg-arg-dip-dip-dip]] (cyclo(R[dR]R[dR][dDip][dDip][dDip]))	MIC P. aeruginosa ATCC 27883	µg/mL	=	12.5
N=C(N)NCCC[C@@H]1NC(=O)[C@H](CCCNC(=N)N)NC(=O)[C@H](CCCNC(=N)N)NC(=O)[C@H](C(c2ccccc2)c2ccccc2)NC(=O)[C@H](C(c2ccccc2)c2ccccc2)NC(=O)[C@H](C(c2ccccc2)c2ccccc2)NC(=O)[C@H](C(c2ccccc2)c2ccccc2)NC(=O)[C@H](CCCNC(=N)N)NC1=O [IFX-005, c[Arg-Arg-Arg-Arg-Dip-Dip-Dip-Dip]] (cyclo([Dip][Dip][Dip][Dip]RRRR))	MIC P. aeruginosa ATCC 27883	µg/mL	=	25
N=C(N)NCCC[C@@H]1NC(=O)[C@H](Cc2ccc3ccccc3c2)NC(=O)[C@H](Cc2ccc3ccccc3c2)NC(=O)[C@H](Cc2ccc3ccccc3c2)NC(=O)[C@@H](CCCNC(=N)N)NC(=O)[C@H](CCCNC(=N)N)NC(=O)[C@H](CCCNC(=N)N)NC1=O [IFX-077, c[Arg-Arg-Arg-arg-NaI-NaI-NaI]] (cyclo(RRR[dR][2Nal][2Nal][2Nal]))	MIC P. aeruginosa ATCC 27883	µg/mL	=	12.5
N=C(N)NCCC[C@@H]1NC(=O)[C@H](CCCNC(=N)N)NC(=O)[C@H](CCCNC(=N)N)NC(=O)[C@H](Cc2ccc(-c3ccccc3)cc2)NC(=O)[C@H](Cc2ccc(-c3ccccc3)cc2)NC(=O)[C@H](Cc2ccc(-c3ccccc3)cc2)NC(=O)[C@H](Cc2ccc(-c3ccccc3)cc2)NC(=O)[C@H](CCCNC(=N)N)NC1=O [IFX-004, c[Arg-Arg-Arg-Arg-Bip-Bip-Bip-Bip]] (cyclo([Bip][Bip][Bip][Bip]RRRR))	MIC P. aeruginosa ATCC 27883	µg/mL	>	100
N=C(N)NCCC[C@@H]1NC(=O)[C@H](CCCNC(=N)N)NC(=O)[C@H](C(c2ccccc2)c2ccccc2)NC(=O)[C@H](C(c2ccccc2)c2ccccc2)NC(=O)[C@H](CCCNC(=N)N)NC(=O)[C@H](CCCNC(=N)N)NC(=O)[C@H](C(c2ccccc2)c2ccccc2)NC1=O [IFX-017, c[Arg-Arg-Dip-Dip-Arg-Arg-Dip]] (cyclo(R[Dip]RR[Dip][Dip]R))	MIC P. aeruginosa ATCC 27883	µg/mL	>	100
N=C(N)NCCC[C@@H]1NC(=O)[C@H](CCCNC(=N)N)NC(=O)[C@H](CCCNC(=N)N)NC(=O)[C@H](Cc2ccc(-c3ccccc3)cc2)NC(=O)[C@H](Cc2ccc(-c3ccccc3)cc2)NC(=O)[C@H](Cc2ccc(-c3ccccc3)cc2)NC(=O)[C@H](CCCNC(=N)N)NC1=O [IFX-007, c[Arg-Arg-Arg-Arg-Bip-Bip-Bip]] (cyclo([Bip][Bip][Bip]RRRR))	MIC P. aeruginosa ATCC 27883	µg/mL	=	25
N=C(N)NCCC[C@@H]1NC(=O)[C@@H](CCCNC(=N)N)NC(=O)[C@H](Cc2c[nH]c3ccccc23)NC(=O)[C@@H](Cc2c[nH]c3ccccc23)NC(=O)[C@H](Cc2c[nH]c3ccccc23)NC(=O)[C@@H](Cc2c[nH]c3ccccc23)NC(=O)[C@H](CCCNC(=N)N)NC(=O)[C@@H](CCCNC(=N)N)NC1=O [IFX-034, c[arg-Arg-arg-Arg-trp-Trp-trp-Trp]] (cyclo(R[dR]R[dW]W[dW]W[dR]))	MIC P. aeruginosa ATCC 27883	µg/mL	=	25
N=C(N)NCCC[C@@H]1NC(=O)[C@H](CCN)NC(=O)[C@@H](Cc2ccc3ccccc3c2)NC(=O)[C@@H](Cc2ccc3ccccc3c2)NC(=O)[C@H](Cc2c[nH]c3ccccc23)NC(=O)[C@@H](CCCNC(=N)N)NC(=O)[C@H](CCCNC(=N)N)NC(=O)[C@@H](CCCNC(=N)N)NC1=O [IFX-056, c[Dab-Arg-arg-Arg-arg-Trp-naI-naI]] (cyclo([Dab]R[dR]R[dR]W[d2Nal][d2Nal]))	MIC P. aeruginosa ATCC 27883	µg/mL	=	32

###

- Test system: Pseudomonas aeruginosa (ATCC 27883)
- condition parameters: ATCC 27883
Non-standard residues stand in square brackets, D forms with d. Residues, ends and D or L forms follow the SMILES beside them. dDip = N[C@@H](C(=O)O)C(c1ccccc1)c1ccccc1; Dip = N[C@H](C(=O)O)C(c1ccccc1)c1ccccc1; 2Nal = N[C@@H](Cc1ccc2ccccc2c1)C(=O)O; d2Nal = N[C@H](Cc1ccc2ccccc2c1)C(=O)O
Binary label based on MIC P. aeruginosa ATCC 27883 with cut-off 20 µg/mL: below gives YES, not below gives NO.

molecule	class label
N=C(N)NCCC[C@@H]1NC(=O)[C@H](CCCNC(=N)N)NC(=O)[C@H](CCCNC(=N)N)NC(=O)[C@@H](CCCNC(=N)N)NC(=O)[C@H](Cc2ccc3ccccc3c2)NC(=O)[C@H](Cc2ccc3ccccc3c2)NC(=O)[C@H](Cc2ccc3ccccc3c2)NC1=O [IFX-080, c[arg-Arg-Arg-Arg-NaI-NaI-NaI]] (cyclo([dR]RRR[2Nal][2Nal][2Nal]))	YES
N=C(N)NCCC[C@H](NC(=O)[C@H](CCCNC(=N)N)NC(=O)[C@H](CCCNC(=N)N)NC(=O)[C@H](CCCNC(=N)N)NC(=O)[C@@H](N)CCCNC(=N)N)C(=O)N[C@@H](Cc1ccc2ccccc2c1)C(=O)N[C@@H](Cc1ccc2ccccc2c1)C(=O)N[C@@H](Cc1ccc2ccccc2c1)C(=O)O [IFX-013-1, NH2-Arg-Arg-Arg-Arg-Arg-NaI-NaI-NaI-OH] (H-RRRRR[2Nal][2Nal][2Nal]-OH)	NO
N=C(N)NCCC[C@H](NC(=O)[C@H](CCCNC(=N)N)NC(=O)[C@@H](N)CCCNC(=N)N)C(=O)N[C@@H](CCCNC(=N)N)C(=O)N[C@H](C(=O)N[C@H](C(=O)N[C@@H](Cc1c[nH]c2ccccc12)C(=O)O)C(c1ccccc1)c1ccccc1)C(c1ccccc1)c1ccccc1 [IFX-028-1, NH2-R-R-R-R-Dip-Dip-Trp-OH] (H-RRRR[Dip][Dip]W-OH)	NO
N=C(N)NCCC[C@H](NC(=O)[C@H](Cc1ccc2ccccc2c1)NC(=O)[C@H](Cc1ccc2ccccc2c1)NC(=O)[C@H](CCCNC(=N)N)NC(=O)[C@H](CCCNC(=N)N)NC(=O)[C@H](Cc1ccc2ccccc2c1)NC(=O)[C@@H](N)CCCNC(=N)N)C(=O)O [IFX-018-1, NH2-Arg-NaI-Arg-Arg-NaI-NaI-Arg-OH] (H-R[2Nal]RR[2Nal][2Nal]R-OH)	NO
N=C(N)NCCC[C@@H]1NC(=O)[C@@H](CCCNC(=N)N)NC(=O)[C@H](CCCNC(=N)N)NC(=O)[C@@H](Cc2ccc3ccccc3c2)NC(=O)[C@@H](Cc2ccc3ccccc3c2)NC(=O)[C@@H](Cc2ccc3ccccc3c2)NC(=O)[C@@H](CCCNC(=N)N)NC1=O [IFX-084, c[Arg-arg-Arg-arg-naI-naI-naI]] (cyclo(R[dR]R[dR][d2Nal][d2Nal][d2Nal]))	YES
N=C(N)NCCC[C@H]1NC(=O)[C@@H](CCCNC(=N)N)NC(=O)[C@@H](CCCNC(=N)N)NC(=O)[C@@H](Cc2ccc3ccccc3c2)NC(=O)[C@@H](Cc2ccc3ccccc3c2)NC(=O)[C@@H](Cc2c[nH]c3ccccc23)NC(=O)[C@@H](CCCNC(=N)N)NC(=O)[C@@H](CCCNC(=N)N)NC1=O [IFX-124, c[arg-arg-arg-arg-arg-trp-naI-naI]] (cyclo([d2Nal][d2Nal][dR][dR][dR][dR][dR][dW]))	YES
N=C(N)NCCC[C@@H]1NC(=O)[C@H](CCCNC(=N)N)NC(=O)[C@@H](Cc2ccc3ccccc3c2)NC(=O)[C@@H](Cc2ccc3ccccc3c2)NC(=O)[C@H](Cc2c[nH]c3ccccc23)NC(=O)[C@@H](CCCNC(=N)N)NC(=O)[C@@H](CCCNC(=N)N)NC1=O [IFX-116, c[Arg-Arg-arg-arg-Trp-naI-naI]] (cyclo(RR[dR][dR]W[d2Nal][d2Nal]))	NO
N=C(N)NCCC[C@@H](N)C(=O)N[C@H](CCCNC(=N)N)C(=O)N[C@H](CCCNC(=N)N)C(=O)N[C@H](CCCNC(=N)N)C(=O)N[C@@H](C(=O)N[C@@H](C(=O)N[C@@H](C(=O)O)C(c1ccccc1)c1ccccc1)C(c1ccccc1)c1ccccc1)C(c1ccccc1)c1ccccc1 [IFX-067-1] (H-[dR][dR][dR][dR][dDip][dDip][dDip]-OH)	YES
N=C(N)NCCC[C@@H](N)C(=O)N[C@@H](CCCNC(=N)N)C(=O)N[C@H](CCCNC(=N)N)C(=O)N[C@@H](CCCNC(=N)N)C(=O)N[C@@H](Cc1c[nH]c2ccccc12)C(=O)N[C@H](Cc1ccc2ccccc2c1)C(=O)N[C@H](Cc1ccc2ccccc2c1)C(=O)O [IFX-110-1] (H-[dR]R[dR]RW[d2Nal][d2Nal]-OH)	NO
N=C(N)NCCC[C@@H]1NC(=O)[C@H](CCCNC(=N)N)NC(=O)[C@H](CCCNC(=N)N)NC(=O)[C@H](Cc2ccc3ccccc3c2)NC(=O)[C@H](Cc2ccc3ccccc3c2)NC(=O)[C@H](CCCNC(=N)N)NC1=O [IFX-011, c[Arg-Arg-Arg-Arg-NaI-NaI]] (cyclo([2Nal][2Nal]RRRR))	NO
N=C(N)NCCC[C@@H](N)C(=O)N[C@H](CCCNC(=N)N)C(=O)N[C@H](CCCNC(=N)N)C(=O)N[C@H](CCCNC(=N)N)C(=O)N[C@H](C(=O)N[C@H](C(=O)N[C@H](C(=O)O)C(c1ccccc1)c1ccccc1)C(c1ccccc1)c1ccccc1)C(c1ccccc1)c1ccccc1 [IFX-073-1] (H-[dR][dR][dR][dR][Dip][Dip][Dip]-OH)	YES

Cited source for all entries: patent US20220289794A1
